experiment summary: Phase I clinical trial pharmacokinetics
details: male, human, in vivo, po, 35 mg, Mean Day 15 Cmax, 35 mg oral, once daily
quantity kind: Cmax (ng/mL)

{"columns": ["compound", "scale unit", "measured"],
 "data": [
  ["N#Cc1ccc(O[C@H]2CC[C@H](NC(=O)c3ccc(N4CCC(CN5CCN(c6cc7c(cc6F)C(=O)N(C6CCC(=O)NC6=O)C7=O)CC5)CC4)nn3)CC2)cc1Cl (stereo partly shown) [Compound (I-g)]", "ng/mL", 83]
]}

----------
experiment summary: Phase I clinical trial pharmacokinetics
details: male, human, in vivo, po, 140 mg, Mean Day 1 AUC0-24, 140 mg oral, once daily

{"columns": ["compound", "scale unit", "AUC(0-t)"],
 "data": [
  ["N#Cc1ccc(O[C@H]2CC[C@H](NC(=O)c3ccc(N4CCC(CN5CCN(c6cc7c(cc6F)C(=O)N(C6CCC(=O)NC6=O)C7=O)CC5)CC4)nn3)CC2)cc1Cl (stereo partly shown)", "ng·h/mL", 865]
]}
